# System: MDA-MB-435
# experimental.protocol: NCI tumour cell line growth inhibition, 48 h
metric: TGI

COC(=O)[C@H](Cc1cn(C)cn1)NC(=O)[C@H](Cc1c[nH]c2ccccc12)NC(=O)Nc1cc(C(F)(F)F)cc(C(F)(F)F)c1 | > 10 µM
N#Cc1nc(-c2cc([N+](=O)[O-])cc([N+](=O)[O-])c2)oc1N | > 10 µM
COc1ccc(N2C(=O)c3c4c(c5c([nH]c6ncccc65)c3C2=O)CCC(C(C)(C)C)C4)cc1 (centres undefined) | > 100 µM
CCCCOC(C)(C)/C=C/C(O)[C@](C)(O)[C@H]1[C@H](O)C[C@@]2(C)[C@@H]3CCc4c(cc(OC5OC(CO)C(O)C(O)C5O)c(O)c4C)C3(C)C(=O)C[C@]12C (some centres undefined) | > 100 µM

* * *

# Tested on: SR leukemia
# experimental.protocol: NCI tumour cell line growth inhibition, 48 h
In this section we review reported TGI values for a set of compounds.
metric: TGI

CCOC(=O)c1[nH]cc(C)c1-c1ccn(-c2ccccc2)c1 | 72.4 µM
O=C(c1ccccc1)C1N=NCC1c1ccc([N+](=O)[O-])cc1 (stereo unspecified) | 84.7 µM
CC(C)(C)N=c1n(C(C)(C)C)oc(=O)n1C(C)(C)C | > 100 µM
COC1(C(=O)N[C@@H](C)c2ccc(-n3cc(F)cn3)nc2)CCC(c2nc(C)cc(Nc3cc(C)[nH]n3)n2)CC1 (stereo partly specified) | > 100 µM
C[C@H](Nc1ncnc2nc[nH]c12)c1cc2cccc(Cl)c2c(=O)n1-c1ccccc1 | > 100 µM
O=C1CCSSCCC(=O)NCCN1 | > 100 µM

* * *

# Tested on: MOLT-4 leukemia
# experimental.protocol: NCI tumour cell line growth inhibition, 48 h
metric: TGI

COc1ccc2c(c1)O/C(=C\c1cccc(OCC(=O)Nc3nc4c(s3)CCCC4)c1)C2=O | 98.7 µM
CC(=O)NS(=O)(=O)c1ccc(NC(=O)c2c3ccccc3nc3ccccc23)cc1 | > 100 µM
Cc1nn(C(=O)Cc2ccccc2)c2c1C(c1ccccc1O)SC(N)=N2 (stereo unspecified) | > 100 µM
COc1c(CCC[P+](c2ccccc2)(c2ccccc2)c2ccccc2)cc2c(c1OC)OCO2 | 16.3 µM
CCCN=Cc1cc(Cc2ccc(O)c(C=NCCC)c2)ccc1O | 3.71 µM
COc1c2c(c3c(c1CCC(=O)O)OC(C)(C)C=C3)OC(C)(C)C=C2 | > 100 µM
Nc1nc(Cl)cc(OCC2(O)CC(COC(=O)c3ccccc3)C2)n1 (stereo unspecified) | 83.7 µM
Cc1ccc(S(=O)(=O)Oc2cc(N)c3c(n2)CCC3)cc1 | > 100 µM
CN(C)NC(=S)Nc1ccccc1Br | > 100 µM
CC(C)(C)N=c1n(C(C)(C)C)oc(=O)n1C(C)(C)C | > 100 µM
Cc1ccc2c(ccc3c[n+]4c5ccccc5ccc4n32)c1 | 9.65 µM
CNC(=O)OCc1nc(SC2CCCCO2)n(C)c1COC(=O)NC (stereo unspecified) | > 100 µM
O=c1c2c([nH]c3cc4c(cc13)OCO4)-c1ccccc1CC2 | > 100 µM
CCC1=CCC23C(=O)C=CC(=O)C2(C1)C(=O)c1cccc(OC)c1C3=O (stereo unspecified) | 17.4 µM
CN(C)c1nc(=NCc2ccncc2)ss1 | 51.1 µM
CN1CCN(CCc2cccc(C(=O)c3cnn(-c4ccc(F)cc4)c3N)c2)CC1 | > 25 µM

* * *

# Test system: RPMI-8226 leukemia
# experimental.protocol: NCI tumour cell line growth inhibition, 48 h
metric: TGI

CC(=O)N/N=C1/NN(C(C)=O)C2(S1)C(=O)Nc1ccc(Br)cc12 (stereo unspecified) | > 100 µM
O=C1OC(=O)C(c2c[nH]c3ccccc23)=C1c1c[nH]c2ccccc12 | > 25 µM
COc1cccc(NC(=O)CC(=O)N2N=C(N(CCC#N)c3ccc(Cl)cc3)CC2c2ccccc2)c1 (stereo unspecified) | > 100 µM
O=C(O)C1CC(c2ccc(F)cc2)=Nc2ccc(F)cc2S1 (stereo unspecified) | > 100 µM
NC(=S)N/N=C(/CC(=O)c1ccccc1)C(=O)Nc1ccc(Cl)c(Cl)c1 | > 100 µM
Cc1ccc(-c2c(N)[n+]([O-])c3ccccc3[n+]2[O-])cc1 | > 100 µM

* * *

# Tested on: A549 NSCLC
# experimental.protocol: NCI tumour cell line growth inhibition, 48 h
metric: TGI

O=C1NCCCc2nonc21 | > 100 µM
N#Cc1nc(-c2cc([N+](=O)[O-])cc([N+](=O)[O-])c2)oc1N | > 10 µM
COc1ccc(N[C@H](CSc2ccc(C)cc2)c2ccc(F)cc2)cc1 | > 100 µM
CCOC(=O)C1=C(C)N(Cc2ccccc2)C(C)=C(C(=O)OCC)C1c1ccccc1O | > 100 µM
N#Cc1cnc2cc(OC[C@H](O)CO)c(NC(=O)CC3CSSC3)cc2c1Nc1ccc(OCc2cccc(F)c2)c(Cl)c1 | 1.98 µM
COc1c2c(c3c(c1CCC(=O)O)OC(C)(C)C=C3)OC(C)(C)C=C2 | > 100 µM

* * *

In this section we review reported TGI values for a set of compounds.
# System: UO-31 renal
# experimental.protocol: NCI tumour cell line growth inhibition, 48 h
metric: TGI

CCN1C(=O)N(CC)C2C1NN=c1s/c(=C\c3cccnc3)c(=O)n12 (stereo not drawn) | > 100 µM
CC(C)(C)OC(=O)C#CC[C@H]1CCCC1/C=C/C(O)=C1/C(=O)NC(CCCNC(=O)OC(C)(C)C)C1=O (stereo partly drawn) | > 100 µM
COC(=O)[C@H](Cc1cn(C)cn1)NC(=O)[C@H](Cc1c[nH]c2ccccc12)NC(=O)Nc1cc(C(F)(F)F)cc(C(F)(F)F)c1 | > 10 µM

* * *

# Tested on: NCI-H460 lung
# experimental.protocol: NCI tumour cell line growth inhibition, 48 h
In this section we review reported TGI values for a set of compounds.
metric: TGI

Cc1sc(C(=O)Nc2cc(C(=O)NCCCN(C)C)n(C)c2)cc1NC(=O)CCCN1C(=O)c2cccc3cccc(c23)C1=O | > 100 µM
COc1ccccc1NC(=O)C1=C(C)NC(C)=C(C(=O)Nc2ccccc2OC)C1c1ccccc1F | > 100 µM
COC1(C(=O)N[C@@H](C)c2ccc(-n3cc(F)cn3)nc2)CCC(c2nc(C)cc(Nc3cc(C)[nH]n3)n2)CC1 (stereo not given in full) | 18.5 µM
O=[N+]([O-])C(=C(N1CCCCC1)N1CCCCC1)/C(Cl)=C(\Cl)Br | > 100 µM
CCCCOC(C)(C)/C=C/C(O)[C@](C)(O)[C@H]1[C@H](O)C[C@@]2(C)[C@@H]3CCc4c(cc(OC5OC(CO)C(O)C(O)C5O)c(O)c4C)C3(C)C(=O)C[C@]12C (stereo not given in full) | > 100 µM
O=C1c2ccccc2-c2c1c1ccccc1c(=O)n2CCCNCCCNCCCn1c2c(c3ccccc3c1=O)C(=O)c1ccccc1-2 | 0.266 µM
Nc1nn2c(C(Br)Br)cc(C(Br)Br)nc2c1[N+](=O)[O-] | 7.5 µM
C/C(=C\c1ccccc1)C(=O)CCN1CCOCC1 | > 100 µM
CC(=O)OC[C@]1(C(=O)C(O)c2ccoc2)[C@H](C)CC[C@@]23COC(=O)C2=CCC[C@@H]31 (stereo not given in full) | > 10 µM
CCN(Cc1ccc(F)c(F)c1)c1ccc(CO)c(Cl)c1 | 10.7 µM
N#C/C(=C1\OC(=O)C(c2ccc(Br)cc2)=C1O)c1ccc(Br)cc1 | 30.4 µM
O=c1cc(/C=C/c2ccc(O)c(O)c2)oc(/C=C/c2ccc(O)c(O)c2)c1 | 21.2 µM
Cc1ccncc1.[O]=[Ge].[O]=[Ge].[O]=[Ge].[O]=[Ge].[O]=[Ge].[O]=[Ge][OH].[O]=[Ge][OH] | > 100 µM
COc1ccc(N[C@H](CSc2ccc(C)cc2)c2ccc(F)cc2)cc1 | > 100 µM
O=C(c1ccc(F)cc1)c1cccc(C(=O)c2ccc(F)cc2)n1 | > 100 µM
CCN(CC)c1ccc(C(=C2C=CC(=[N+](CC)Cc3cccc(S(=O)(=O)O)c3)C=C2)c2ccc(N(CC)Cc3cccc(S(=O)(=O)O)c3)cc2)cc1 | 39.1 µM
CN(C)C(CN)CC1=C(CC(CN)N(C)C)CCC1 (stereo not given) | > 100 µM
OC[C@@H](O)[C@H]1NC[C@@H](O)[C@H]1O | > 100 µM
CCC(C(=O)O)c1ccc(OCc2ccccc2)cc1 (stereo not given) | > 100 µM
COP(=O)(O)/C=C/C(NC(=O)C(Cl)(Cl)Cl)c1ccccc1 (stereo not given) | > 100 µM
COc1ccc(C(=O)/C=C/c2ccc(/C=C/c3cc(OC)c(OC)c(OC)c3)cc2)cc1 | > 100 µM
CC(C)(C)C1=Cc2cc3cc(C(C)(C)C)[nH]c(=O)c3cc2S(=O)(=O)N1 | > 100 µM
CC1=NOC(=O)/C1=C/c1ccccc1O | > 100 µM
O=C1CCSSCCC(=O)NCCN1 | > 100 µM
Nc1c2ccccc2nc2c1ccc1ncccc12 | 47.4 µM
